Data origin: PubChem BioAssay AID1845197

# Tested on: 349418-098-R tumor spheroid viability
# experiment summary: Anticancer human tumor 349418-098-R patient-derived lung adenocarcinoma cell line growth inhibition
# cond: second compound 0.03 µM; first compound 0.0316 µM; hits give low values; spheroids with HUVEC and MSC
Label t when viability, T/C < 20%; otherwise f.

Exercise: Regarding Cc1cc(C)c(CNC(=O)c2cc(-c3ccc(CN4CCOCC4)cc3)cc3c2cnn3C2CCCC2)c(=O)[nH]1 + CC[C@@]1(O)C(=O)OCc2c1cc1n(c2=O)Cc2cc3c(CN(C)C)c(O)ccc3nc2-1 , kindly confirm whether its viability, T/C is beneath 20%.
Solution: f

Exercise: viability, T/C strictly < 20% for this molecule? [2H]c1nc(C)nc([2H])c1-c1cc(NC[C@@H](C)c2cccc3c(C(=O)NC)ccnc23)ncn1 + CC[C@@]1(O)C(=O)OCc2c1cc1n(c2=O)Cc2cc3c(CN(C)C)c(O)ccc3nc2-1
Solution: f

Exercise: Just wondering, is viability, T/C of COc1cc(C)[nH]c(=O)c1CN1CCc2c(Cl)cc(C(OC)C3COC3)c(Cl)c2C1=O (stereo unspecified) + CC[C@@]1(O)C(=O)OCc2c1cc1n(c2=O)Cc2cc3c(CN(C)C)c(O)ccc3nc2-1 below 20%?
Solution: f

Exercise: In plain terms, does CC(C)n1c(=O)n(C)c2cnc3cc(F)c(-c4ccc(OCCCN5CCCCC5)nc4)cc3c21 + CC[C@@]1(O)C(=O)OCc2c1cc1n(c2=O)Cc2cc3c(CN(C)C)c(O)ccc3nc2-1 come in under 20% for viability, T/C?
Solution: f

Exercise: Please check: viability, T/C for CC1COCCN1c1cc(-c2ccnn2C)c2ccnc(-c3ccn[nH]3)c2n1 (stereo unspecified) + CC[C@@]1(O)C(=O)OCc2c1cc1n(c2=O)Cc2cc3c(CN(C)C)c(O)ccc3nc2-1 , strictly under 20% or not?
Solution: t

Exercise: Lab note: viability, T/C threshold 20%. Does this molecule come in strictly under it? COc1ccc([C@@H](O)c2cc(-c3ncnc4cc(N5CCOCC5)ccc34)c(F)cc2Cl)nn1 + CC[C@@]1(O)C(=O)OCc2c1cc1n(c2=O)Cc2cc3c(CN(C)C)c(O)ccc3nc2-1
Solution: f

====

# Tested on: 349418-098-R tumor spheroid viability
# experiment summary: Anticancer human tumor 349418-098-R cell line growth inhibition;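 further: spheroids exposed to compound for 7 days before measurement; percent of vehicle control viability with 100% = DMSO-treated spheroids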
# cond: second compound 31.6 µM; first compound 3.16 µM; hits give low values; spheroids with HUVEC and MSC
viability, T/C less than 90% is label 1; viability, T/C greater than or equal to 90% is label 0.

COc1cc(C)[nH]c(=O)c1CN1CCc2c(Cl)cc(C(OC)C3COC3)c(Cl)c2C1=O (stereo unspecified) + Cn1nnc2c(C(N)=O)ncn2c1=O: label 1
[2H]c1nc(C)nc([2H])c1-c1cc(NC[C@@H](C)c2cccc3c(C(=O)NC)ccnc23)ncn1 + Cn1nnc2c(C(N)=O)ncn2c1=O: label 0
COc1ccc([C@@H](O)c2cc(-c3ncnc4cc(N5CCOCC5)ccc34)c(F)cc2Cl)nn1 + Cn1nnc2c(C(N)=O)ncn2c1=O: label 1
CC(C)n1c(=O)n(C)c2cnc3cc(F)c(-c4ccc(OCCCN5CCCCC5)nc4)cc3c21 + Cn1nnc2c(C(N)=O)ncn2c1=O: label 0

Let's switch to this molecule now.
Exercise: Does the reported viability, T/C of CC1COCCN1c1cc(-c2ccnn2C)c2ccnc(-c3ccn[nH]3)c2n1 (stereo unspecified) + Cn1nnc2c(C(N)=O)ncn2c1=O stay below 90%?
Solution: label 1

====

# Tested on: 349418-098-R tumor spheroid viability
# experiment summary: Anticancer human tumor 349418-098-R cell line growth inhibition;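 further: spheroids exposed to compound for 7 days before measurement; percent of vehicle control viability with 100% = DMSO-treated spheroids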
# cond: second compound 0.3 µM; first compound 3.16 µM; hits give low values; spheroids with HUVEC and MSC
quantity measured: viability, T/C (%)
Express it in %; write the number only.

Illustrative cases are given below, each with its answer.
Cc1cc(C)c(CNC(=O)c2cc(-c3ccc(CN4CCOCC4)cc3)cc3c2cnn3C2CCCC2)c(=O)[nH]1 + CC[C@@]1(O)C(=O)OCc2c1cc1n(c2=O)Cc2cc3c(CN(C)C)c(O)ccc3nc2-1: 3.27
CC(C)n1c(=O)n(C)c2cnc3cc(F)c(-c4ccc(OCCCN5CCCCC5)nc4)cc3c21 + CC[C@@]1(O)C(=O)OCc2c1cc1n(c2=O)Cc2cc3c(CN(C)C)c(O)ccc3nc2-1: 8.16

Query [2H]c1nc(C)nc([2H])c1-c1cc(NC[C@@H](C)c2cccc3c(C(=O)NC)ccnc23)ncn1 + CC[C@@]1(O)C(=O)OCc2c1cc1n(c2=O)Cc2cc3c(CN(C)C)c(O)ccc3nc2-1 on 349418-098-R tumor spheroid viability; viability, T/C returned: 4.8

Noted viability, T/C for CC1COCCN1c1cc(-c2ccnn2C)c2ccnc(-c3ccn[nH]3)c2n1 (stereo unspecified) + CC[C@@]1(O)C(=O)OCc2c1cc1n(c2=O)Cc2cc3c(CN(C)C)c(O)ccc3nc2-1 , tested on 349418-098-R tumor spheroid viability: 4.37

Field viability, T/C (system: 349418-098-R tumor spheroid viability) for entry COc1cc(C)[nH]c(=O)c1CN1CCc2c(Cl)cc(C(OC)C3COC3)c(Cl)c2C1=O (stereo unspecified) + CC[C@@]1(O)C(=O)OCc2c1cc1n(c2=O)Cc2cc3c(CN(C)C)c(O)ccc3nc2-1 = 4.11

# COc1ccc([C@@H](O)c2cc(-c3ncnc4cc(N5CCOCC5)ccc34)c(F)cc2Cl)nn1 + CC[C@@]1(O)C(=O)OCc2c1cc1n(c2=O)Cc2cc3c(CN(C)C)c(O)ccc3nc2-1 with 349418-098-R tumor spheroid viability: viability, T/C is 4.77

====

# Test system: 349418-098-R tumor spheroid viability
# experiment summary: Anticancer human tumor 349418-098-R cell line growth inhibition;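 further: spheroids exposed to compound for 7 days before measurement; percent of vehicle control viability with 100% = DMSO-treated spheroids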
# cond: second compound 0.003 µM; first compound 1 µM; hits give low values; spheroids with HUVEC and MSC
Cut-off 90% on viability, T/C: below means yes (1), at or above means no (0).

See these solved cases before continuing.
COc1ccc([C@@H](O)c2cc(-c3ncnc4cc(N5CCOCC5)ccc34)c(F)cc2Cl)nn1 + COc1cc2c(cc1O)CCNC21CSC2c3c(OC(C)=O)c(C)c4c(c3C(COC1=O)N1C(O)C3Cc5cc(C)c(OC)c(O)c5C(C21)N3C)OCO4: yes (1)
COc1cc(C)[nH]c(=O)c1CN1CCc2c(Cl)cc(C(OC)C3COC3)c(Cl)c2C1=O (configuration not stated) + COc1cc2c(cc1O)CCNC21CSC2c3c(OC(C)=O)c(C)c4c(c3C(COC1=O)N1C(O)C3Cc5cc(C)c(OC)c(O)c5C(C21)N3C)OCO4: yes (1)
CC(C)n1c(=O)n(C)c2cnc3cc(F)c(-c4ccc(OCCCN5CCCCC5)nc4)cc3c21 + CC[C@@]1(O)C(=O)OCc2c1cc1n(c2=O)Cc2cc3c(CN(C)C)c(O)ccc3nc2-1: no (0)
CC1COCCN1c1cc(-c2ccnn2C)c2ccnc(-c3ccn[nH]3)c2n1 (configuration not stated) + COc1cc2c(cc1O)CCNC21CSC2c3c(OC(C)=O)c(C)c4c(c3C(COC1=O)N1C(O)C3Cc5cc(C)c(OC)c(O)c5C(C21)N3C)OCO4: yes (1)

Exercise: Bench note: check whether COc1ccc([C@@H](O)c2cc(-c3ncnc4cc(N5CCOCC5)ccc34)c(F)cc2Cl)nn1 + CC[C@@]1(O)C(=O)OCc2c1cc1n(c2=O)Cc2cc3c(CN(C)C)c(O)ccc3nc2-1 shows viability, T/C below 90%
Solution: no (0)

Exercise: Please state whether viability, T/C is below 90% for [2H]c1nc(C)nc([2H])c1-c1cc(NC[C@@H](C)c2cccc3c(C(=O)NC)ccnc23)ncn1 + CC[C@@]1(O)C(=O)OCc2c1cc1n(c2=O)Cc2cc3c(CN(C)C)c(O)ccc3nc2-1
Solution: no (0)

Exercise: I wonder whether CC(C)n1c(=O)n(C)c2cnc3cc(F)c(-c4ccc(OCCCN5CCCCC5)nc4)cc3c21 + COc1cc2c(cc1O)CCNC21CSC2c3c(OC(C)=O)c(C)c4c(c3C(COC1=O)N1C(O)C3Cc5cc(C)c(OC)c(O)c5C(C21)N3C)OCO4 has viability, T/C below 90%. Can you tell?
Solution: yes (1)

Exercise: viability, T/C under 90%? Item: CC1COCCN1c1cc(-c2ccnn2C)c2ccnc(-c3ccn[nH]3)c2n1 (configuration not stated) + CC[C@@]1(O)C(=O)OCc2c1cc1n(c2=O)Cc2cc3c(CN(C)C)c(O)ccc3nc2-1
Solution: yes (1)

Exercise: Here's an entry: [2H]c1nc(C)nc([2H])c1-c1cc(NC[C@@H](C)c2cccc3c(C(=O)NC)ccnc23)ncn1 + COc1cc2c(cc1O)CCNC21CSC2c3c(OC(C)=O)c(C)c4c(c3C(COC1=O)N1C(O)C3Cc5cc(C)c(OC)c(O)c5C(C21)N3C)OCO4 . Is its viability, T/C below 90%?
Solution: yes (1)

Exercise: Does this compound meet the criterion viability, T/C < 90%? Cc1cc(C)c(CNC(=O)c2cc(-c3ccc(CN4CCOCC4)cc3)cc3c2cnn3C2CCCC2)c(=O)[nH]1 + COc1cc2c(cc1O)CCNC21CSC2c3c(OC(C)=O)c(C)c4c(c3C(COC1=O)N1C(O)C3Cc5cc(C)c(OC)c(O)c5C(C21)N3C)OCO4
Solution: yes (1)

Exercise: Consider the compound COc1cc(C)[nH]c(=O)c1CN1CCc2c(Cl)cc(C(OC)C3COC3)c(Cl)c2C1=O (configuration not stated) + CC[C@@]1(O)C(=O)OCc2c1cc1n(c2=O)Cc2cc3c(CN(C)C)c(O)ccc3nc2-1 . Is its viability, T/C strictly less than 90%?
Solution: no (0)
